- target_under_test: T1, RBFOX1 RRM (Homo sapiens, UniProt Q9NWB1 109-208)
- T1 sequence: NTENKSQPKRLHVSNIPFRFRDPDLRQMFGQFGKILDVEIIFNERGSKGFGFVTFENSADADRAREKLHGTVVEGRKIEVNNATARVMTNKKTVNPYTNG
- method_notes: EMSA; HiTS-Eq, 1 nM pool, 10 min; buffer printed only for the single-RNA assays: 10 mM Tris pH 7.5, 150 mM NaCl, 3.4 mM EDTA, 0.001% NP-40, 30 C
- assay_setup: tags: His6 N-terminal (pET28a); label: 5' 32P
In all, about 16,000 sequences were measured (“ka relative to ugcaugu”: median about 0.0091, highest 2% from about 0.032 on). The entries come from a sample that favours the highest values as a whole.
readout: binding signal

Known results for binders:
binder="CCGCACU (DNA:RNA) RNA: GGGAGACCGGAAUUCAGAUUGUCCCCGCACUUUAAAUCCCGUCGUAGCCACCA DNA 1: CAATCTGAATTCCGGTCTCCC DNA 2: TGGTGGCTACGACGGGATT" readout="binding signal" result="0.00621 KA relative to UGCAUGU"
binder="GGAACGU (DNA:RNA) RNA: GGGAGACCGGAAUUCAGAUUGUCCGGAACGUUUAAAUCCCGUCGUAGCCACCA DNA 1: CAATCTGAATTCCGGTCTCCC DNA 2: TGGTGGCTACGACGGGATT" readout="binding signal" result="0.0248 KA relative to UGCAUGU"
binder="ACUUCCC (DNA:RNA) RNA: GGGAGACCGGAAUUCAGAUUGUCCACUUCCCUUAAAUCCCGUCGUAGCCACCA DNA 1: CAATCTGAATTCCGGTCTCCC DNA 2: TGGTGGCTACGACGGGATT" readout="binding signal" result="0.00296 KA relative to UGCAUGU"

Reported binding signal for GACGCUG (DNA:RNA) RNA: GGGAGACCGGAAUUCAGAUUGUCCGACGCUGUUAAAUCCCGUCGUAGCCACCA DNA 1: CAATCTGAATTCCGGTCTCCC DNA 2: TGGTGGCTACGACGGGATT was 0.0241 KA relative to UGCAUGU
